Listed molecules paired with reported MIC
system: Staphylococcus aureus; assay: Antibacterial activity against Staphylococcus aureus ATCC 6538p after 24 hrs by twofold serial dilution method; format: functional
MEASURED ENDPOINT: MIC (µg/mL)

MOLECULE: CC(=O)OC[C@]12CCCC(C)(C)[C@@H]1CC[C@]1(C)[C@@H]2C[C@@H](O)[C@]2(C)[C@@H]3C(=CC[C@@H]12)CO[C@H]3O
UNIT OF MEASUREMENT: µg/mL
READOUT RELATION: =
VALUE OBSERVED: 25

MOLECULE: CC(=O)OC[C@]12CCCC(C)(C)[C@@H]1CC[C@]1(C)[C@@H]2C[C@@H](OC(C)=O)[C@]2(C)[C@@H]3C(=CC[C@@H]12)CO[C@H]3O
UNIT OF MEASUREMENT: µg/mL
READOUT RELATION: >
VALUE OBSERVED: 100

MOLECULE: CC(=O)O[C@@H]1C[C@@H]2[C@@]3(C)CCCC(C)(C)[C@@H]3CC[C@@]2(C)[C@@H]2CC=C3CO[C@@H](O)[C@@H]3[C@@]12C
UNIT OF MEASUREMENT: µg/mL
READOUT RELATION: >
VALUE OBSERVED: 100

MOLECULE: CC1(C)S[C@@H]2[C@H](NC(=O)[C@H](N)c3ccccc3)C(=O)N2[C@H]1C(=O)O [AMPICILLIN]
UNIT OF MEASUREMENT: µg/mL
READOUT RELATION: =
VALUE OBSERVED: 1.56

MOLECULE: CC(=O)O[C@@H]1C[C@@H]2[C@@]3(C)CCCC(C)(C)[C@@H]3CC[C@@]2(C)[C@@H]2CC=C3C(=O)O[C@@H](O)[C@@H]3[C@@]12C
UNIT OF MEASUREMENT: µg/mL
READOUT RELATION: >
VALUE OBSERVED: 100

MOLECULE: CO[C@@H]1C[C@H]2[C@]3(C)CC[C@H]4C(C)(C)CCC[C@]4(C)[C@H]3C[C@@H](OC(C)=O)[C@]2(C)C2=C1[C@H](O)OC2=O (mixture of isomers)
UNIT OF MEASUREMENT: µg/mL
READOUT RELATION: =
VALUE OBSERVED: 25

MOLECULE: CO[C@@H]1C[C@H]2[C@]3(C)CC[C@H]4C(C)(C)CCC[C@]4(C)[C@H]3C[C@@H](OC(C)=O)[C@]2(C)C2=C1C(=O)N(CC(=O)[O-])[C@H]2OC.[Na+]
UNIT OF MEASUREMENT: µg/mL
READOUT RELATION: =
VALUE OBSERVED: 50

MOLECULE: CO[C@@H]1C[C@H]2[C@]3(C)CC[C@H]4C(C)(C)CCC[C@]4(C)[C@H]3C[C@@H](OC(C)=O)[C@]2(C)C2=C1C(=O)O[C@H]2O
UNIT OF MEASUREMENT: µg/mL
READOUT RELATION: =
VALUE OBSERVED: 25

MOLECULE: C[C@@]1(CO)CCC[C@]2(C)[C@H]3C[C@@H](O)[C@]4(C)[C@H]5COC(=O)C5=CC[C@H]4[C@]3(C)CC[C@@H]12
UNIT OF MEASUREMENT: µg/mL
READOUT RELATION: >
VALUE OBSERVED: 100

MOLECULE: CO[C@@H]1OCC2=CC[C@H]3[C@]4(C)CC[C@H]5C(C)(C)CCC[C@]5(C)[C@H]4C[C@@H](O)[C@]3(C)[C@H]21
UNIT OF MEASUREMENT: µg/mL
READOUT RELATION: >
VALUE OBSERVED: 100

MOLECULE: CO[C@@H]1OC(=O)C2=CC[C@H]3[C@]4(C)CC[C@H]5C(C)(C)CCC[C@]5(C)[C@H]4C[C@@H](OC(C)=O)[C@]3(C)[C@H]21
UNIT OF MEASUREMENT: µg/mL
READOUT RELATION: >
VALUE OBSERVED: 100

MOLECULE: CO[C@@H]1OCC2=CC[C@H]3[C@]4(C)CC[C@H]5C(C)(C)CCC[C@]5(C)[C@H]4C[C@@H](OC(C)=O)[C@]3(C)[C@H]21
UNIT OF MEASUREMENT: µg/mL
READOUT RELATION: >
VALUE OBSERVED: 100

Each recorded value in this set is attributed to ChEMBL document CHEMBL1773036.
